IC50 reference
Test system: SUDHL5
Experiment: Induction of cytotoxicity (Assay 6), SUDHL5
Conditions: read-out: Cytotox SUDHL5 [M] (median) IC50, CellTiter-Glo, 5 hours, SUDHL5
Reply numerically in M, unit not repeated.

Worked set:
Cc1c2c(nn1C)CN(CCN1CCOCC1)S(=O)(=O)CCCn1c(C(=O)O)c(CCCOc3cccc4ccccc34)c3cccc-2c31 (single isomer, unassigned; enantiomer 1) [Example 2]; 3.5e-06
CCc1c2c(nn1C)CN(C1CC1)S(=O)(=O)CCCn1c(C(=O)O)c(CCCOc3cccc4cc(F)ccc34)c3ccc(Cl)c-2c31 (racemic) [Example 53]; 8.1e-07
Cc1c2c(nn1C)C(CCN1CCOCC1)N(C)S(=O)(=O)CCCn1c(C(=O)O)c(CCCOc3cccc4cc(F)ccc34)c3ccc(Cl)c-2c31 (racemic) [Example 48]; 1.4e-08
Cc1c2c(nn1C)CN(C1CC1)S(=O)(=O)CCCn1c(C(=O)O)c(CCCOc3cccc4cc(F)ccc34)c3ccc(Cl)c-2c31 (racemic) [Example 41]; 9.7e-07
Cc1c2c(nn1C)CN(C)S(=O)(=O)CCCn1c(C(=O)O)c(CCCOc3cccc4cc(F)ccc34)c3ccc(F)c-2c31 (single isomer, unassigned; enantiomer 1) [Example 38]; 1.7e-05
CCc1c2c(nn1C)CN(CC)S(=O)(=O)CCCn1c(C(=O)O)c(CCCOc3cccc4cc(F)ccc34)c3ccc(Cl)c-2c31 (single isomer, unassigned; enantiomer 2) [Example 58]; 1.2e-05
Cc1c2c(nn1C)CNS(=O)(=O)CCCn1c(C(=O)O)c(CCCOc3cccc4cc(F)ccc34)c3ccc(Cl)c-2c31 (single isomer, unassigned; enantiomer 2) [Example 52]; 1.7e-05
CCc1c2c(nn1C)CN(C)S(=O)(=O)CCCn1c(C(=O)O)c(CCCOc3cccc4cc(F)ccc34)c3ccc(Cl)c-2c31 (single isomer, unassigned; enantiomer 1) [Example 36]; 1.6e-07

For the compound Cc1c2c(nn1C)C(CCN1CCOCC1)N(C)S(=O)(=O)CCCn1c(C(=O)O)c(CCCOc3cccc4ccccc34)c3cccc-2c31 (single isomer, unassigned; enantiomer 1) [Example 45] , give its measured IC50 value. 2e-05

For the compound Cc1c2c(nn1C)CN(C1CC1)S(=O)(=O)CCCn1c(C(=O)O)c(CCCOc3cccc4cc(F)ccc34)c3ccc(Cl)c-2c31 (single isomer, unassigned; enantiomer 1) [Example 42] , give its measured IC50 value. 3e-07

For the compound Cc1c2c(nn1C)CNS(=O)(=O)CCCn1c(C(=O)O)c(CCCOc3cccc4cc(F)ccc34)c3ccc(Cl)c-2c31 (single isomer, unassigned; enantiomer 1) [Example 51] , give its measured IC50 value. 5e-07

For the compound CCc1c2c(nn1C)CN(C)S(=O)(=O)CCCn1c(C(=O)O)c(CCCOc3cccc4cc(F)ccc34)c3ccc(F)c-2c31 (single isomer, unassigned; enantiomer 1) [Example 8] , give its measured IC50 value. 7.7e-07

* * *

Target: BCL-XL (Homo sapiens (Human))
Sequence (Q07817 other isoform, or with tags, fused parts or gaps): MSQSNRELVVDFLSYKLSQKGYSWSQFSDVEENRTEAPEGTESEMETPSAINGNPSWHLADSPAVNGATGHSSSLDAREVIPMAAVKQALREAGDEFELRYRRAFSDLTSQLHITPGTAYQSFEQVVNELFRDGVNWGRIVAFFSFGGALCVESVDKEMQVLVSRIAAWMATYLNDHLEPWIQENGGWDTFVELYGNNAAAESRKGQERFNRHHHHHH
Assay: Protein-protein interaction assay BCL-XL/Bad BH3 peptide (BCL-XL assay, TR-FRET)
Type: binding
Details: His-BCL-XL / Bad BH3 peptide, median
readout-kind: IC50

Cc1c2c(nn1C)CN(C1CC1)S(=O)(=O)CCCn1c(C(=O)O)c(CCCOc3cccc4cc(F)ccc34)c3ccc(Cl)c-2c31 (single isomer, unassigned; enantiomer 2) [Example 43]; > 20 µM
CCc1c2c(nn1C)C(CCC1CCOCC1)N(C)S(=O)(=O)CCCn1c(C(=O)O)c(CCCOc3cccc4cc(F)ccc34)c3ccc(Cl)c-2c31 (single isomer, unassigned; enantiomer 1) [Example 61]; > 20 µM

// moving on: another record for IC50
For the molecule Cc1c2c(nn1C)CN(C)S(=O)(=O)CCCn1c(C(=O)O)c(CCCOc3cccc4c3CCC4)c3ccc(F)c-2c31 (racemic) , give its measured IC50 value. > 20 µM

* * *

Biological target: BCL-2 (Homo sapiens (Human), UniProt P10415)
Sequence (P10415 other isoform, or with tags, fused parts or gaps): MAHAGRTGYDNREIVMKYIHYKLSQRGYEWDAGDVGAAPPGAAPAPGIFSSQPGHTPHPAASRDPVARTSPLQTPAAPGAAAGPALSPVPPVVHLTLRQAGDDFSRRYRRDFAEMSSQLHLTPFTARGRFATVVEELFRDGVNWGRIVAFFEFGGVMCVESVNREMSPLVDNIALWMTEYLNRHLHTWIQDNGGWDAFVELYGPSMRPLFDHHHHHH
Assay: Protein-protein interaction assay BCL-2/Bad BH3 peptide (BCL-2 assay, TR-FRET)
Type: binding
Conditions: His-BCL-2 / Bad BH3 peptide, median
IC50 reference

COc1ccc(CN2Cc3nn(C)c(C)c3-c3c(Cl)ccc4c(CCCOc5cccc6cc(F)ccc56)c(C(=O)O)n(c34)CCCS2(=O)=O)c(OC)c1 (racemic); 20 µM
CCc1c2c(nn1C)CN(C)S(=O)(=O)CCCn1c(C(=O)O)c(CCCOc3cccc4c3CCC4)c3ccc(F)c-2c31 (racemic); > 20 µM
Cc1c2c(nn1C)CN(C1CC1)S(=O)(=O)CCCn1c(C(=O)O)c(CCCOc3cccc4cc(F)ccc34)c3ccc(Cl)c-2c31 (single isomer, unassigned; enantiomer 2) [Example 43]; > 20 µM
Cc1c2c(nn1C)CN(C)S(=O)(=O)CCCn1c(C(=O)O)c(CCCOc3cccc4ccccc34)c3ccc(Cl)c-2c31 (racemic); > 20 µM
Cc1c2c(nn1C)CN(C)S(=O)(=O)CCCn1c(C(=O)O)c(CCCOc3cccc4c3CCCC4)c3ccc(F)c-2c31 (racemic); > 20 µM

// moving on: another record for IC50
For the molecule CCc1c2c(nn1C)CN(C)S(=O)(=O)CCCn1c(C(=O)O)c(CCCOc3cccc4cc(F)ccc34)c3ccc(F)c-2c31 (single isomer, unassigned; enantiomer 2) [Example 9] , give its measured IC50 value. > 20 µM

* * *

Target: BCL-2 (Homo sapiens (Human), UniProt P10415)
Experiment: Protein-protein interaction assay BCL-2/Bad BH3 peptide (BCL-2 assay, TR-FRET)
Type: binding
Conditions: His-BCL-2 / Bad BH3 peptide, median
readout-kind: IC50

Worked set:
CCc1c2c(nn1C)CN(CCN1CCCCC1)S(=O)(=O)CCCn1c(C(=O)O)c(CCCOc3cccc4ccccc34)c3cccc-2c31 (racemic); > 20 µM
CCc1c2c(nn1C)C(CCC1CCOCC1)N(C)S(=O)(=O)CCCn1c(C(=O)O)c(CCCOc3cccc4cc(F)ccc34)c3ccc(Cl)c-2c31 (single isomer, unassigned; enantiomer 4) [Example 64]; > 20 µM
CCc1c2c(nn1C)CN(C)S(=O)(=O)CCCn1c(C(=O)O)c(CCCOc3cc(C)c(Cl)c(C)c3)c3ccc(Cl)c-2c31; > 20 µM
Cc1c2c(nn1C)CNS(=O)(=O)CCCn1c(C(=O)O)c(CCCOc3cccc4cc(F)ccc34)c3ccc(Cl)c-2c31 (racemic) [Example 50]; > 20 µM

For the compound Cc1c2c(nn1C)CN(C1CC1)S(=O)(=O)CCCn1c(C(=O)O)c(CCCOc3cccc4ccccc34)c3ccc(Cl)c-2c31 , give its measured IC50 value. > 20 µM

For the compound Cc1c2c(nn1C)CN(C)S(=O)(=O)CCCn1c(C(=O)O)c(CCCOc3cccc4cc(F)ccc34)c3ccc(F)c-2c31 (single isomer, unassigned; enantiomer 2) [Example 39] , give its measured IC50 value. > 20 µM

For the compound CCc1c2c(nn1C)CN(C)S(=O)(=O)CCCn1c(C(=O)O)c(CCCOc3cccc4c3CCC4)c3ccc(Cl)c-2c31 , give its measured IC50 value. > 20 µM

For the compound Cc1c2c(nn1C)C(CCN1CCOCC1)N(C)S(=O)(=O)CCCn1c(C(=O)O)c(CCCOc3cccc4cc(F)ccc34)c3ccc(Cl)c-2c31 (racemic) [Example 48] , give its measured IC50 value. > 20 µM

For the compound CCc1c2c(nn1C)CN(CCCN1CCOCC1)S(=O)(=O)CCCn1c(C(=O)O)c(CCCOc3cccc4ccccc34)c3cccc-2c31 (racemic) , give its measured IC50 value. > 20 µM

* * *

IC50 reference
Tested on: SUDHL5
Assay: Induction of cytotoxicity (Assay 6), SUDHL5
Settings: read-out: Cytotox SUDHL5 [M] (median) IC50, CellTiter-Glo, 5 hours, SUDHL5

CCc1c2c(nn1C)C(N1CCOCC1)CCN(C)S(=O)(=O)CCCn1c(C(=O)O)c(CCCOc3cccc4cc(F)ccc34)c3ccc(Cl)c-2c31 (single isomer, unassigned; enantiomer 2) [Example 71]; 1e-07 M
Cc1c2c(nn1C)CN(C)S(=O)(=O)CCCn1c(C(=O)O)c(CCCOc3cccc4ccccc34)c3ccc(Cl)c-2c31 (racemic) [Example 4]; 8.1e-07 M
Cc1c2c(nn1C)C(CCN1CCOCC1)N(C)S(=O)(=O)CCCn1c(C(=O)O)c(CCCOc3cccc4cc(F)ccc34)c3ccc(Cl)c-2c31 (racemic) [Example 65]; 5.8e-08 M
CCNCC.CCc1c2c(nn1C)C(CCN1CCOCC1)N(C)S(=O)(=O)CCCn1c(C(=O)O)c(CCCOc3cccc4cc(F)ccc34)c3ccc(Cl)c-2c31 (single isomer, unassigned; enantiomer 2); 6.7e-09 M

For the compound Cc1c2c(nn1C)CN(CCN1CCOCC1)S(=O)(=O)CCCn1c(C(=O)O)c(CCCOc3cccc4ccccc34)c3cccc-2c31 (single isomer, unassigned; enantiomer 2) [Example 3] , give its measured IC50 value. > 3.3e-05 M
